biological target: HDAC3/NCoR2 (Homo sapiens); construct: HDAC3/NCoR2 (full length, C-terminal His tag, NCoR2 N-terminal GST tag); purchased BPS Bioscience 50003; assay: Recombinant HDAC µSPOT microarray binding assay;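 note: peptide spots on cellulose slides incubated with rising HDAC enzyme concentrations, imaged together, four-parameter logistic fit, EC50 is enzyme concentration giving half-maximal binding signal, two experiments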; conditions: HDAC3 µSPOT microarray, Fig. 3; Hill slope of dose-response fit; X = Asuha
Sequence (O15379 whole entry): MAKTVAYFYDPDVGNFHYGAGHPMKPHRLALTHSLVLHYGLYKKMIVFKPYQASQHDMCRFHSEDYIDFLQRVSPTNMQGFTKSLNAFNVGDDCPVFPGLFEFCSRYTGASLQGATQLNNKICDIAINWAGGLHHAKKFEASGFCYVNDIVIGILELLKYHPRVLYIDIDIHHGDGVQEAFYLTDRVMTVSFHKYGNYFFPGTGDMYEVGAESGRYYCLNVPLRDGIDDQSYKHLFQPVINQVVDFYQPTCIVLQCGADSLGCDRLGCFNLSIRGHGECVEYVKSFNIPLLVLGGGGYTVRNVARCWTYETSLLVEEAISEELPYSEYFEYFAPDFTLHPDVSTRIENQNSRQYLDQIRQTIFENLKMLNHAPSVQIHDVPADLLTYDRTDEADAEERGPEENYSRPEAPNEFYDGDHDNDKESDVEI
Sequence (Q9Y618 389-480 partner limits assumed): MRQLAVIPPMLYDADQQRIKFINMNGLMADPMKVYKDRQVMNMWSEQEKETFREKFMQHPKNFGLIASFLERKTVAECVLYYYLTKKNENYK
Provide the reported HillSlope of each item.
One number for each entry.

Before answering, review these 2 worked examples.
substance	HillSlope
H2B 64-79 (SFVNDIFERIAGEASR; UniProt P62807 65-80, looked up, fragment)	1.87
H2A 37-52 (GNYSERVGAGAPVYLA; UniProt P04908 38-53, looked up, fragment)	0.78

# batch size: 4; output HillSlope per entry
1. H2B 67-82 (NDIFERIAGEASRLAH; UniProt P06899 68-83, looked up, fragment)
2. H2A 79-94 (IPRHLQLAIRNDEELN; UniProt P0C0S8 80-95, looked up, fragment)
3. H2A 100-115 (VTIAQGGVLPNIQAVL; UniProt P0C0S8 101-116, looked up, fragment)
4. H2A 46-61 (GAPVYLAAVLEYLTAE; UniProt P0C0S8 47-62, looked up, fragment)

1. 1.68
2. 1.48
3. 1.35
4. 1.43
